// data source = patent US7345192B2

conditions.used: hamster, 24 h, 1 % formulation
In this section, each of the compounds is paired with its reported Skin penetration, % of applied dose after 24 hr.

Illustrative cases are given below, each with its answer.
Cc1cc(C)c(C=NCCCC(N)(C(=O)O)C(F)F)c(C)c1 (centres unmarked) = 6.68 ± 1.68 % of applied dose
COc1cc(C=NCCCC(N)(C(=O)O)C(F)F)ccc1O (centres unmarked) = 3.34 ± 1.97 % of applied dose
CC(C)c1ccc(C=NCCCC(N)(C(=O)O)C(F)F)cc1 (centres unmarked) = 3.31 ± 0.98 % of applied dose
NC(CCCN=Cc1ccccc1)(C(=O)O)C(F)F (centres unmarked) = 9.63 ± 1.31 % of applied dose

// query Skin penetration, % of applied dose after 24 hr lookup needed for CC(C=NCCCC(N)(C(=O)O)C(F)F)=Cc1ccccc1 (centres unmarked) , thanks.
// result 3.28 ± 0.88 % of applied dose
